Values were extracted from PubChem BioAssay AID1963873.

tested on: 276233-004-R-J1-PDC KRAS spheroids with HUVEC/MSC, viability; experiment: Anticancer human tumor 276233-004-R-J1-PDC patient-derived colon adenocarcinoma cell line growth inhibition [KRAS2]; settings: curve of first compound; second compound 10 µM
pIC50: −log10 of the molar value.
# maps each entry to its pIC50

Molecule	Measurement label	Recorded measurement
CC(=O)OC12COC1CC(O)C1(C)C(=O)C(O)C3=C(C)C(OC(=O)C(O)C(NC(=O)OC(C)(C)C)c4ccccc4)CC(O)(C(OC(=O)c4ccccc4)C21)C3(C)C (stereo not given) + CNCc1ccccc1-c1csc(C(C)Nc2nc(C)nc3cc(OC)c(OC)cc23)c1	pIC50	> 8.00
COC(=O)c1ccc2c(C(=Nc3ccc(N(C)C(=O)CN4CCN(C)CC4)cc3)c3ccccc3)c(O)[nH]c2c1 + COc1cc2nc(C)nc(NC(C)c3cc(N)cc(C(F)(F)F)c3)c2cc1OC1CCOC1	pIC50	> 7.50
CC(C)NCC(C(=O)N1CCN(c2ncnc3c2C(C)CC3O)CC1)c1ccc(Cl)cc1 (stereo not given) + COc1cc2nc(C)nc(NC(C)c3cc(N)cc(C(F)(F)F)c3)c2cc1OC1CCOC1	pIC50	> 7.50

Give reported pIC50 value for CC(=O)OC12COC1CC(O)C1(C)C(=O)C(O)C3=C(C)C(OC(=O)C(O)C(NC(=O)OC(C)(C)C)c4ccccc4)CC(O)(C(OC(=O)c4ccccc4)C21)C3(C)C (stereo not given) + C=CC(=O)N1CCN(c2nc(=O)n(-c3c(C)ccnc3C(C)C)c3nc(-c4c(O)cccc4F)c(F)cc23)C(C)C1
< 5.50

Could you please provide reported pIC50 for CC(C)NCC(C(=O)N1CCN(c2ncnc3c2C(C)CC3O)CC1)c1ccc(Cl)cc1 (stereo not given) + CNCc1ccccc1-c1csc(C(C)Nc2nc(C)nc3cc(OC)c(OC)cc23)c1 ? Thanks!
> 7.50

Write down pIC50 measured for item CC(C)NCC(C(=O)N1CCN(c2ncnc3c2C(C)CC3O)CC1)c1ccc(Cl)cc1 (stereo not given) + C=CC(=O)N1CCN(c2nc(=O)n(-c3c(C)ccnc3C(C)C)c3nc(-c4c(O)cccc4F)c(F)cc23)C(C)C1
< 5.00

Indicate its recorded pIC50; the molecule in question is Cn1ncnc1[C@H]1c2n[nH]c(=O)c3cc(F)cc(c23)N[C@@H]1c1ccc(F)cc1 + C=CC(=O)N1CCN(c2nc(=O)n(-c3c(C)ccnc3C(C)C)c3nc(-c4c(O)cccc4F)c(F)cc23)C(C)C1
< 7.00

Query pIC50 for CC1(C)CCC(CN2CCN(c3ccc(C(=O)NS(=O)(=O)c4ccc(NCC5CCOCC5)c([N+](=O)[O-])c4)c(Oc4cnc5[nH]ccc5c4)c3)CC2)=C(c2ccc(Cl)cc2)C1 + CNCc1ccccc1-c1csc(C(C)Nc2nc(C)nc3cc(OC)c(OC)cc23)c1
> 7.50

Answer with reported pIC50 of COc1cc(Nc2ncc3c(n2)-c2ccc(Cl)cc2C(c2c(F)cccc2OC)=NC3)ccc1C(=O)O + COc1cc2nc(C)nc(NC(C)c3cc(N)cc(C(F)(F)F)c3)c2cc1OC1CCOC1
> 7.50

Provide pIC50 value for the following molecule: COc1cc(Nc2ncc3c(n2)-c2ccc(Cl)cc2C(c2c(F)cccc2OC)=NC3)ccc1C(=O)O + C=CC(=O)N1CCN(c2nc(=O)n(-c3c(C)ccnc3C(C)C)c3nc(-c4c(O)cccc4F)c(F)cc23)C(C)C1
< 5.00

* * *

The following compounds are shown together with reported viability, T/C values.
tested on: 276233-004-R-J1-PDC KRAS spheroids with HUVEC/MSC, viability; test: Anticancer human tumor 276233-004-R-J1-PDC cell line growth inhibition [KRAS2]; details: second compound 1 µM; first compound 1 µM; stronger effect = lower value;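 further: cells exposed to agents for seven days before viability read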;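 on viability, T/C: 100% = DMSO vehicle control wells and lower values mean fewer viable cells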
The response must be a number in % with no trailing unit.

Compound	Measurement label	Recorded measurement
CCNC(=O)CC1N=C(c2ccc(Cl)cc2)c2cc(OC)ccc2-n2c(C)nnc21 (stereo unspecified) + CNCc1ccccc1-c1csc(C(C)Nc2nc(C)nc3cc(OC)c(OC)cc23)c1	viability, T/C	61
Cn1nccc1Nc1nccc(-c2cc3c(s2)C(C)(C)N(CCN2CCOCC2)C3=O)n1 + COc1cc2nc(C)nc(NC(C)c3cc(N)cc(C(F)(F)F)c3)c2cc1OC1CCOC1	viability, T/C	60.5
CC(C)NCC(C(=O)N1CCN(c2ncnc3c2C(C)CC3O)CC1)c1ccc(Cl)cc1 (stereo unspecified) + C=CC(=O)N1CCN(c2nc(=O)n(-c3c(C)ccnc3C(C)C)c3nc(-c4c(O)cccc4F)c(F)cc23)C(C)C1	viability, T/C	76.9
O=C(c1cc(Cc2n[nH]c(=O)c3ccccc23)ccc1F)N1CCN(C(=O)C2CC2)CC1 + CNCc1ccccc1-c1csc(C(C)Nc2nc(C)nc3cc(OC)c(OC)cc23)c1	viability, T/C	73.8
CC(C)NCC(C(=O)N1CCN(c2ncnc3c2C(C)CC3O)CC1)c1ccc(Cl)cc1 (stereo unspecified) + CNCc1ccccc1-c1csc(C(C)Nc2nc(C)nc3cc(OC)c(OC)cc23)c1	viability, T/C	34.9
CC1COCCN1c1cc(-c2ccnn2C)c2ccnc(-c3ccn[nH]3)c2n1 (stereo unspecified) + CC1OCC2(CCN(c3cnc(Sc4ccnc(N)c4Cl)c(N)n3)CC2)C1N	viability, T/C	57.4
COc1cc2nccc(Oc3ccc(NC(=O)C4(C(=O)Nc5ccc(F)cc5)CC4)cc3)c2cc1OC + C=CC(=O)N1CCN(c2nc(OCC3CCCN3C)nc3c2CCN(c2cccc4cccc(C)c24)C3)CC1CC#N	viability, T/C	72
CC(=O)OC12COC1CC(O)C1(C)C(=O)C(O)C3=C(C)C(OC(=O)C(O)C(NC(=O)OC(C)(C)C)c4ccccc4)CC(O)(C(OC(=O)c4ccccc4)C21)C3(C)C (stereo unspecified) + CC1OCC2(CCN(c3cnc(Sc4ccnc(N)c4Cl)c(N)n3)CC2)C1N	viability, T/C	84.3

Please report the measured viability, T/C for COC(=O)c1ccc2c(C(=Nc3ccc(N(C)C(=O)CN4CCN(C)CC4)cc3)c3ccccc3)c(O)[nH]c2c1 + COc1cc2nc(C)nc(NC(C)c3cc(N)cc(C(F)(F)F)c3)c2cc1OC1CCOC1
70.2

Specify reported viability, T/C for the compound shown: CC1(C)CCC(CN2CCN(c3ccc(C(=O)NS(=O)(=O)c4ccc(NCC5CCOCC5)c([N+](=O)[O-])c4)c(Oc4cnc5[nH]ccc5c4)c3)CC2)=C(c2ccc(Cl)cc2)C1 + C=CC(=O)N1CCN(c2nc(=O)n(-c3c(C)ccnc3C(C)C)c3nc(-c4c(O)cccc4F)c(F)cc23)C(C)C1
109

Specify viability, T/C for O=C(c1cc(Cc2n[nH]c(=O)c3ccccc23)ccc1F)N1CCN(C(=O)C2CC2)CC1 + CC1OCC2(CCN(c3cnc(Sc4ccnc(N)c4Cl)c(N)n3)CC2)C1N and stop.
54.2

For the compound CC1(C)CCC(CN2CCN(c3ccc(C(=O)NS(=O)(=O)c4ccc(NCC5CCOCC5)c([N+](=O)[O-])c4)c(Oc4cnc5[nH]ccc5c4)c3)CC2)=C(c2ccc(Cl)cc2)C1 + CNCc1ccccc1-c1csc(C(C)Nc2nc(C)nc3cc(OC)c(OC)cc23)c1 , give its measured viability, T/C value.
59.4

Give viability, T/C for Cn1nccc1Nc1nccc(-c2cc3c(s2)C(C)(C)N(CCN2CCOCC2)C3=O)n1 + C=CC(=O)N1CCN(c2nc(=O)n(-c3c(C)ccnc3C(C)C)c3nc(-c4c(O)cccc4F)c(F)cc23)C(C)C1
93.1

Return value of viability, T/C for input COc1cc(Nc2ncc3c(n2)-c2ccc(Cl)cc2C(c2c(F)cccc2OC)=NC3)ccc1C(=O)O + C=CC(=O)N1CCN(c2nc(=O)n(-c3c(C)ccnc3C(C)C)c3nc(-c4c(O)cccc4F)c(F)cc23)C(C)C1 , no commentary.
115

Supply reported viability, T/C belonging to this compound: CC1COCCN1c1cc(-c2ccnn2C)c2ccnc(-c3ccn[nH]3)c2n1 (stereo unspecified) + C=CC(=O)N1CCN(c2nc(OCC3CCCN3C)nc3c2CCN(c2cccc4cccc(C)c24)C3)CC1CC#N
64

Using the record for CC(C)NCC(C(=O)N1CCN(c2ncnc3c2C(C)CC3O)CC1)c1ccc(Cl)cc1 (stereo unspecified) + COc1cc2nc(C)nc(NC(C)c3cc(N)cc(C(F)(F)F)c3)c2cc1OC1CCOC1 , state its measured viability, T/C.
55.4

Identify the reported viability, T/C for the following entry. COc1cc2nccc(Oc3ccc(NC(=O)C4(C(=O)Nc5ccc(F)cc5)CC4)cc3)c2cc1OC + COc1cc2nc(C)nc(NC(C)c3cc(N)cc(C(F)(F)F)c3)c2cc1OC1CCOC1
71.4

For the compound COc1cc(Nc2ncc3c(n2)-c2ccc(Cl)cc2C(c2c(F)cccc2OC)=NC3)ccc1C(=O)O + COc1cc2nc(C)nc(NC(C)c3cc(N)cc(C(F)(F)F)c3)c2cc1OC1CCOC1 , give its measured viability, T/C value.
68

Return value of viability, T/C for input Cn1nccc1Nc1nccc(-c2cc3c(s2)C(C)(C)N(CCN2CCOCC2)C3=O)n1 + CC1OCC2(CCN(c3cnc(Sc4ccnc(N)c4Cl)c(N)n3)CC2)C1N , no commentary.
38

Given the compound CC(C)NCC(C(=O)N1CCN(c2ncnc3c2C(C)CC3O)CC1)c1ccc(Cl)cc1 (stereo unspecified) + CC1OCC2(CCN(c3cnc(Sc4ccnc(N)c4Cl)c(N)n3)CC2)C1N , write its reported viability, T/C.
52.8

Hello, please tell me recorded viability, T/C for this one: CCNC(=O)CC1N=C(c2ccc(Cl)cc2)c2cc(OC)ccc2-n2c(C)nnc21 (stereo unspecified) + C=CC(=O)N1CCN(c2nc(=O)n(-c3c(C)ccnc3C(C)C)c3nc(-c4c(O)cccc4F)c(F)cc23)C(C)C1
63.3
